B1: BTBD10 (parent)
chain: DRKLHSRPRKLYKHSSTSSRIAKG

Variants of: B1
ASSAY OVERVIEW: protein stability index of a GFP-peptide fusion (GPS, HEK-293T) (PSI 1-6); higher = more stable;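 note: lentivirally expressed fusions sorted by FACS into six bins by GFP to DsRed ratio, PSI derived from sequencing read proportions per bin multiplied by bin number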
EXPERIMENTAL CONDITIONS: c terminus: a fixed tail appended
The variants listed here are annotated with their protein stability index.
QUANTITY MEASURED: protein stability index

>>> reported_value("I21V")
3.74
>>> reported_value("P8N")
3.81
>>> reported_value("S16D")
3.83
>>> reported_value("R7D")
4.54
>>> reported_value("R2L")
2.7
>>> reported_value("K13N")
3.61
>>> reported_value("T17I")
3.56
>>> reported_value("L11C")
2.99
>>> reported_value("L11I")
3.61
>>> reported_value("D1K")
3.2
>>> reported_value("K13S")
3.52
>>> reported_value("R7V")
3.28
>>> reported_value("D1N")
4
>>> reported_value("S19L")
3.45
>>> reported_value("H5Y")
3.02
>>> reported_value("S16E")
3.99
>>> reported_value("R7M")
3.84
>>> reported_value("G24H")
3.35
>>> reported_value("I21F")
3.65
>>> reported_value("H5G")
2.82
>>> reported_value("K13Q")
4.12
>>> reported_value("R7W")
2.97
